Cited source: the supplement of paper PMC3545927

TARGET_UNDER_TEST: furin, P09958;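 note: purified furin at 1:10 enzyme:substrate in 50 mM HEPES pH 7.5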
Sequence (P09958 whole entry): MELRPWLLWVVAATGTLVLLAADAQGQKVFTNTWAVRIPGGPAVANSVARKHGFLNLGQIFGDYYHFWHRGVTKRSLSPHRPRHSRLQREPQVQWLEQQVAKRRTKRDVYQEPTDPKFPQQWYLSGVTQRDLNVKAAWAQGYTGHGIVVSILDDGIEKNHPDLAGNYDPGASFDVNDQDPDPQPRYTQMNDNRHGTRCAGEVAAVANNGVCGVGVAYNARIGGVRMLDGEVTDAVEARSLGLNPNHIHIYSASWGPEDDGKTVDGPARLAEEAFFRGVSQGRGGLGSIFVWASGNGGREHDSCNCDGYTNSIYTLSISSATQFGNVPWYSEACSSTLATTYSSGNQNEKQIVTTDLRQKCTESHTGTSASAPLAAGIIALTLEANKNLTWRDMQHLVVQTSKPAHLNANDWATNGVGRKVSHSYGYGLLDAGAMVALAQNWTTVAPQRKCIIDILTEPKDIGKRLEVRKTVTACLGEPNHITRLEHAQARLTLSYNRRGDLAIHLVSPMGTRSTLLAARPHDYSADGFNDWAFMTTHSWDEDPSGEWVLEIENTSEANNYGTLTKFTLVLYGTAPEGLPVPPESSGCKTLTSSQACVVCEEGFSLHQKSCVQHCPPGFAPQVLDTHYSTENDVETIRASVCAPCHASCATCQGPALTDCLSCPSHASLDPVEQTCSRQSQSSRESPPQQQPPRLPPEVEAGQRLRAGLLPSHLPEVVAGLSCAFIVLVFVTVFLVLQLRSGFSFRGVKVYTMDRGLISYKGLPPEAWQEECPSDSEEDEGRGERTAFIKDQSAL
EXPERIMENT: furin cleavage Z-score vs untreated control; higher = more cleavage, active = 3.5 or more, inactive = 1 or less, 8 variable residues between constant flanks
EXPERIMENTAL_SETUP: 30 min
Some of the results follow. The hit rate among all sequences tested is not known here.
ENDPOINT_NAME: furin cleavage Z-score
I'd appreciate a reply containing only the number, no unit.

Q. # return recorded furin cleavage Z-score for entry CAREKKSASWAGNASASA [FS-3244]
A. 0.389

Q. # return recorded furin cleavage Z-score for entry CAESRRLPRSAGNASASA [FS-1321]
A. 2.83

Q. # return recorded furin cleavage Z-score for entry CAEVPCHRPHAGNASASA [HC2415]
A. 0.894

Q. # return recorded furin cleavage Z-score for entry CAEVVTNTWVAGNASASA [HC158]
A. -0.0393

Q. # return recorded furin cleavage Z-score for entry CARGGRDAVIAGNASASA [HC594]
A. 0.331

Q. # return recorded furin cleavage Z-score for entry CAEVPCHQPSAGNASASA [HC2382]
A. 1.13

Q. # return recorded furin cleavage Z-score for entry CAALSRGKREAGNASASA [FS-1584]
A. 8.56

Q. # return recorded furin cleavage Z-score for entry CARHKKSKFTAGNASASA [FS-3253]
A. -1.12

Q. # return recorded furin cleavage Z-score for entry CAQMHRKFRSAGNASASA [FS-703]
A. 6.07
